Assayed Target: T1, monkey CTLA-4, full length, on transfected HEK293 cells (monkey)
T1 construct: whole, on cells; also called cCTLA-4; HEK293-cCTLA-4
Assay Overview: FACS, monkey CTLA-4 expressing cells
Readout Type: MFI at 0.32 nM
Give the figure by itself; no unit, no explanation.

Briefly, MFI at 0.32 nM measured for 92C8B6 fully human CTLA-4 antibody (human IgG1, kappa) (antibody, V domains shown, also called mAb42; mAb042) VH: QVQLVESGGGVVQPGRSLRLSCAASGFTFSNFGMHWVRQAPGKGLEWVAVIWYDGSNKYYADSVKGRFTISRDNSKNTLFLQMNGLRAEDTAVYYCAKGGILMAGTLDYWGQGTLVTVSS VL: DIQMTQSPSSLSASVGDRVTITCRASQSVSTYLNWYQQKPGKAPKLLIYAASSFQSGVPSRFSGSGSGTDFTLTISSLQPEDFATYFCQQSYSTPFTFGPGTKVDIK : 208

Briefly, MFI at 0.32 nM measured for 40C4C6 fully human CTLA-4 antibody (human IgG1, kappa) (antibody, V domains shown, also called mAb09; mAb009) VH: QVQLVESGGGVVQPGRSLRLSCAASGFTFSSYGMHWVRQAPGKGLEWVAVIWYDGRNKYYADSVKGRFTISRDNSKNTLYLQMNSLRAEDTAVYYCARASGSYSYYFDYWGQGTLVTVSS VL: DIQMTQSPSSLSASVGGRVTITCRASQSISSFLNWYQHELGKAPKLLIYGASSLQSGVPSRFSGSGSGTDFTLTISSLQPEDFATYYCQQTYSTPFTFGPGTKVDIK : 219

Briefly, MFI at 0.32 nM measured for 31C12F3 fully human CTLA-4 antibody (human IgG1, kappa) (antibody, V domains shown, also called mAb010) VH: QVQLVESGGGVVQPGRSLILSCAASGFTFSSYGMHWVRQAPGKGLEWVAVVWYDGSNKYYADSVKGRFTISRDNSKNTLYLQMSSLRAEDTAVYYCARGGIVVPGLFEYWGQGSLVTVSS VL: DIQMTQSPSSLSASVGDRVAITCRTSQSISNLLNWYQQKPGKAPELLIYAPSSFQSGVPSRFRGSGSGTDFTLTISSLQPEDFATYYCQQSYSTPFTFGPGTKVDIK : 261

Briefly, MFI at 0.32 nM measured for 97A8D1 fully human CTLA-4 antibody (human IgG1, kappa) (antibody, V domains shown, also called mAb49; mAb049) VH: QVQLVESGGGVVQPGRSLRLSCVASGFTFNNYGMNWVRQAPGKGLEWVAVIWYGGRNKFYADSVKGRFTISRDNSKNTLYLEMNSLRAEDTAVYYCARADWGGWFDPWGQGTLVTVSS VL: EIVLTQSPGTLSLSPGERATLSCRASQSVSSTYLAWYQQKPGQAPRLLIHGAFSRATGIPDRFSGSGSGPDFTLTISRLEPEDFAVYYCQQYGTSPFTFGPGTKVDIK : 225
